# System: A549/ATCC NSCLC
# experimental-details: NCI-60 one-dose screen, 48 h
# condition-description: 10 µM unless noted
About 83,000 compounds went through this panel and 20% of them were active in at least one assay; those are over-represented in the sample as a whole. Activity calls are given as the source filed them. How the source made its calls: active means growth percent below 10; inactive means the rest.
Possible outcomes: active, inactive

{"compound": "O=C(CI)NC1Oc2ccccc2-c2oc(=O)c(-c3ccccc3)cc21 (stereo not given)", "discrete-label": "inactive"}
{"compound": "O=C1c2cccnc2C(=O)c2c1c(C(=O)NCCCN1CCCCC1)c1ccccn21", "discrete-label": "active"}
{"compound": "CCOC(=O)c1cc(C(=O)c2cc(OC)c(OC)c(OC)c2)n2ccc(-c3ccncc3)cc12", "discrete-label": "inactive"}
{"compound": "O=C(O)CNC1=C(Cl)C(=O)c2ccccc2C1=O", "discrete-label": "inactive"}
{"compound": "N=C(N)c1ccc(-c2ccc(-c3ccc(Cl)cc3)s2)nc1", "discrete-label": "active"}

* * *

# System: SF-268 CNS
# experimental-details: NCI-60 one-dose screen, 48 h (100 = growth as untreated, 0 = no growth, -100 = all killed)
# condition-description: 10 µM unless noted
About 83,000 compounds went through this panel and 20% of them were active in at least one assay; those are over-represented in the sample as a whole.
Classify: criterion met when growth is strictly less than 40%; criterion not met when growth is not.

{"molecule": "COC(=O)c1c2c(c(C)[n+]([O-])c1C)C(=O)C=C(NCc1ccc(OC)cc1)C2=O", "discrete-label": "criterion met"}
{"molecule": "CC1(C)CCC(S(=O)(=O)c2ccc3c(c2)/C(=N\\O)c2cc(S(=O)(=O)N4CCC(O)(c5cccc(C(F)(F)F)c5)CC4)ccc2-3)CC1", "discrete-label": "criterion met"}
{"molecule": "Fc1cc2c(cc1Cl)N(c1ncnc3ccc(-c4cnc5[nH]ncc5c4)cc13)CC2", "discrete-label": "criterion not met"}
{"molecule": "COc1ccc(/C=C2\\C(=O)N=C3N2NC(c2cc(Br)ccc2O)C=C(C)N3c2ccccc2)cc1 (centres undefined)", "discrete-label": "criterion not met"}
{"molecule": "N#CC1=C(c2ccc(Cl)cc2)Nc2c(c(-c3ccc(Cl)cc3)nn2-c2ccccc2)C12C(=O)Nc1ccc(Cl)cc12 (centres undefined)", "discrete-label": "criterion met"}
{"molecule": "CCOC(=O)CNP(=O)(OC[C@@H](Cc1ccccc1)NC(=O)c1cc2ccccc2s1)Oc1ccccc1 (some centres undefined)", "discrete-label": "criterion not met"}
{"molecule": "Cc1nn(-c2ccccc2)c(Oc2ccccn2)c1-c1nc2ccccc2s1", "discrete-label": "criterion not met"}
{"molecule": "C/C(=N/O)c1ccc(F)cc1", "discrete-label": "criterion not met"}
{"molecule": "CC[C@@H](C(=O)[C@@H](C)[C@@H](O)[C@H](C)[C@@H]1O[C@@H]([C@@H](CC)C(=O)NCCc2ccc(F)cc2)CC[C@@H]1C)C1O[C@]2(C=CC(=O)[C@]3(CC[C@@](C)([C@H]4CC[C@](O)(CC)[C@H](C)O4)O3)O2)[C@H](C)C[C@@H]1C (some centres undefined)", "discrete-label": "criterion met"}

* * *

# System: UACC-62 melanoma
# experimental-details: NCI-60 one-dose screen, 48 h (100 = growth as untreated, 0 = no growth, -100 = all killed)
# condition-description: 10 µM unless noted
The panel holds about 83,000 compounds, 20% with a hit somewhere; the sample as a whole holds those more often.

{"item-smiles": "Cc1ccc(-n2c(=S)[nH]c3sc4c(c3c2=O)CCC(=O)C4)cc1", "growth (%)": 10.3}
{"item-smiles": "Cc1nc(N2CCOCC2)sc1S(N)(=O)=O", "growth (%)": 94}
{"item-smiles": "CSc1nc2sc3c(c2c(=O)n1-c1ccc([N+](=O)[O-])cc1)CCCCC3", "growth (%)": 87.1}
{"item-smiles": "Fc1ccc(Nc2nc3nonc3nc2Nc2ccc(I)cc2)cc1", "growth (%)": -21.4}
{"item-smiles": "CC1(C)CC[C@]2(c3nnc(-c4ccncc4)o3)CC[C@H]3C(=CC[C@H]4[C@@]3(C)CC[C@H]3C(C)(C)C(=O)CC[C@]43C)[C@@H]2C1", "growth (%)": 54.7}
{"item-smiles": "O=C(Nc1ncc(Cc2ccc(Cl)c(C(F)(F)F)c2)s1)c1ccc2nnsc2c1", "growth (%)": 6.95}
{"item-smiles": "O=C(/C=C/c1cn(-c2ccccc2)nc1-c1ccc([N+](=O)[O-])cc1)c1ccc(Cl)cc1", "growth (%)": 58.9}
{"item-smiles": "CCN(CC)CCOc1ccc(-c2c(-c3ccccc3)c(=O)oc3ccccc23)cc1", "growth (%)": 82.7}
{"item-smiles": "C=CCn1c(SCC(=O)Nc2ccc(C(=O)/C=C/c3cc4cc(OC)ccc4nc3Cl)cc2)nnc1-c1ccc(Br)cc1", "growth (%)": 72.9}
{"item-smiles": "CCn1c(=S)[nH]c2c(=O)n(C)c(=O)n(C)c21", "growth (%)": 116}
{"item-smiles": "O=Nc1c(-c2c(O)[nH]c3ncccc23)[nH]c2ccccc12", "growth (%)": 56.7}
{"item-smiles": "Cc1ccccc1Cn1cnc2ccc(-c3cc(NC(=O)c4ccc(NC5CCN(C)CC5)cc4)n[nH]3)cc21", "growth (%)": 73.2}
{"item-smiles": "O=C1Nc2ccccc2[C@]12CC(c1ccccc1)=NN2", "growth (%)": 19.5}
{"item-smiles": "Cc1nc2c(=O)[nH]c(SCC(=O)Nc3cccc(F)c3)nc2[nH]c1=O", "growth (%)": 98.9}
{"item-smiles": "COc1ccc2[nH]cc(-c3nc(-c4cn(C)c5c(Cl)nccc45)cs3)c2c1", "growth (%)": 43.8}
{"item-smiles": "C=CCn1cc(-c2nc3ccccc3s2)c2cc(-c3ccc4c5c(cccc35)C(=O)N(N)C4=O)ccc21", "growth (%)": 86.9}
{"item-smiles": "CO/N=C(/C)c1ccc(NC(=O)CSc2nnc(-c3ccncc3)n2-c2ccccc2)cc1", "growth (%)": 26.1}
{"item-smiles": "O=C1/C(=C/c2ccc(F)cc2)COc2ccc(O)cc21", "growth (%)": 85.2}
{"item-smiles": "COc1cc(OC)c2sc(-c3ccc(-n4cncc4-c4ccc(OC)c(OC)c4)cc3)nc2c1", "growth (%)": 53.4}
{"item-smiles": "O=C1/C(=C/c2ccccc2Br)COc2ccc(O)c(O)c21", "growth (%)": 6.99}

* * *

# Test system: OVCAR-3 ovarian
# experimental-details: NCI-60 one-dose screen, 48 h (100 = growth as untreated, 0 = no growth, -100 = all killed)
# condition-description: 10 µM unless noted
The panel holds about 83,000 compounds, 20% with a hit somewhere; the sample as a whole holds those more often.
Below, each entry is listed with its recorded growth.

{"compound": "CC1(C)CC2=C3C=C[C@@H]4[C@@]5(C)CCC(=O)C(C)(C)[C@@H]5CC[C@@]4(C)[C@]3(C)CC[C@@]2(C(=O)O)CC1=O", "units-of-measure": "%", "growth": 60.1}
{"compound": "NC(=O)c1c(NC(=O)c2ccccc2)sc2c1CCC(=O)C2", "units-of-measure": "%", "growth": 7.93}
{"compound": "Cc1cc(Cl)ccc1NC(=O)c1cc2ccccc2cc1O", "units-of-measure": "%", "growth": -3.47}
{"compound": "CN1CCN(c2ccc(NC(=O)c3nc4ccc5[nH]ncc5c4c4c3CCCC4)cc2C(F)(F)F)CC1", "units-of-measure": "%", "growth": 11.5}
{"compound": "O=C(CSc1nnc2n1S(=O)(=O)c1ccccc1N2c1ccccc1)Nc1nc2ccc(F)cc2s1", "units-of-measure": "%", "growth": 106}
{"compound": "COc1cc(-c2nc(SCC(C)C)nc(Nc3cccc4ccccc34)c2C#N)cc(OC)c1OC", "units-of-measure": "%", "growth": 117}
{"compound": "CCc1ccc(C(=O)/C=C/C23c4ccccc4C(c4ccccc42)C2C(=O)NC(=O)C23)cc1 (stereo not given)", "units-of-measure": "%", "growth": -59.7}
{"compound": "CNC(=O)c1cc(Oc2ccc3c(c2)sc2nc(-c4cc(OC)c(OC)c(OC)c4)cn23)ccn1", "units-of-measure": "%", "growth": 71.9}
{"compound": "CC(C)(C)c1cc(-c2nc3ccc(N4CCN(S(C)(=O)=O)CC4)cc3[nH]2)cc(C(C)(C)C)c1O", "units-of-measure": "%", "growth": 98.8}
{"compound": "CN1CCN(Cc2ccc3c(NNC(=O)c4ccccc4)nc4cc(F)ccc4n23)CC1", "units-of-measure": "%", "growth": 38.9}
{"compound": "Oc1c(Cl)cc(Cl)c2ccc(Cn3cc(-c4ccc(C(F)(F)F)cc4)nn3)nc12", "units-of-measure": "%", "growth": -16.1}
{"compound": "CC(=O)OCc1nc(C#N)c(N(C)C)o1", "units-of-measure": "%", "growth": 99.1}
{"compound": "Cc1ccc(Sc2nnc(/N=C3\\C(=O)Nc4ccccc43)s2)cc1", "units-of-measure": "%", "growth": 106}
{"compound": "Cc1ccc(/C=C2\\CN(C(=O)OC(C)(C)C)C/C(=C\\c3ccc(C)cc3)C2=O)cc1", "units-of-measure": "%", "growth": 7.18}
{"compound": "COC(=O)[C@H]1CCCN1C[C@@H](O)CN1C(=O)/C(=C\\c2cc(OC)c(OC)c(OC)c2)c2ccccc21", "units-of-measure": "%", "growth": 105}
{"compound": "CNC(=O)c1cc(Oc2ccc3nc(NC(C)=O)sc3c2)ccn1", "units-of-measure": "%", "growth": 105}
{"compound": "c1cc2[nH]ncc2cc1-c1nc2ccc3[nH]ncc3c2c2c1CCCC2", "units-of-measure": "%", "growth": 28}
{"compound": "N#CCSc1nnc2n(Cc3ccccc3)c(=O)c3c4c(sc3n12)CCCC4", "units-of-measure": "%", "growth": 98.5}
{"compound": "Cc1ccc(Cc2cnc(NC(=O)c3cc(Br)cs3)s2)cc1", "units-of-measure": "%", "growth": 61.9}
{"compound": "O=C1c2cccnc2C(=O)c2c1c(C(=O)NCCCN1CCCCC1)c1ccccn21", "units-of-measure": "%", "growth": -34.8}
